From: patent US20170306005A1

Biological target: T1, mouse tenascin-C rCd4-His-FBG (rat; mouse, UniProt P05540 207-392, limits assumed)
T1 construct: domain: domains 3 and 4; C-terminal FBG fusion; biotinylated in the ELISA screen; also called Mu TNC; mouse TNC rCd4-His-FBG; not shown: 6His tag
T1 sequence (chain (part 1 of 2)): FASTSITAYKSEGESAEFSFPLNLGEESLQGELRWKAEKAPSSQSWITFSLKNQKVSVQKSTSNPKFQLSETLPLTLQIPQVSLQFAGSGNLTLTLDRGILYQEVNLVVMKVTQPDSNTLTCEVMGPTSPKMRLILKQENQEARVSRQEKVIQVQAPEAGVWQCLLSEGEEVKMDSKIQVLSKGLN
T1 sequence (chain (part 2 of 2)): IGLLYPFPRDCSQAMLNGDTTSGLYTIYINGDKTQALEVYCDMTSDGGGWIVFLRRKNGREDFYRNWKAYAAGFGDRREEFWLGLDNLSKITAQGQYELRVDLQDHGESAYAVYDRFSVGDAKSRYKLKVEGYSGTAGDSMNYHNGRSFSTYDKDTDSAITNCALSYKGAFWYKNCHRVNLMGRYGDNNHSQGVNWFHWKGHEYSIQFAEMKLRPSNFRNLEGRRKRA
Experiment: SPR, captured purified IgG4, 37 C
measuredParameter: Kd (nM)
Dear colleague, please return just the value in nM, with no unit written.

Query: Any idea what its Kd is? The binder is 165_13_C3 human IgG4 (antibody, V domains shown, also called IgG4 C3; C3 IgG4 MAb) VH: QVQLVESGGGLVQPGRSLRLSCAASGFTFDDYAMHWVRQAPGKGLEWVSGISGSGGSTYYADSVKGRFTISRDNAKNSLYLQMNSLRAEDTALYYCAKSYQSDEDAFDIWGQGTMVTVSS VL: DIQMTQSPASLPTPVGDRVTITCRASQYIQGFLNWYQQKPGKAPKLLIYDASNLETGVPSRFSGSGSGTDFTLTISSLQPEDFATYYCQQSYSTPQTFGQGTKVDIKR
Reply: 0.46
